- testDetails: Apparent permeability from apical to basolateral side in human Caco2 cells
- Type: ADME, cell-based
- appliedConditions: Caco-2
propertyName: Papp A→B (nm/s)

[1] OC[C@@H](O)[C@@H](O)[C@H](O)[C@H](O)CO [MANNITOL]
[2] CC[C@@H](C)Nc1nc(C)nc2c(-c3ccc(OC)nc3C)c(C)nn12 [PEXACERFONT]
Req: 1 or 2 : whose Papp A→B is greater? I would appreciate it if you answered with the label of your choice.
Resp: 2
(2: 170 nm/s, 1: 2.1 nm/s)

###

- testDetails: Plasma clearance in beagle dog at 1 mg/kg, iv
- Assay type: ADME, organism-based, Canis lupus familiaris
- Set-up: dose 1 mg/kg, route intravenous
propertyName: clearance (mL/min/kg)
Quick note: give the figure in mL/min/kg, leave out the unit.

Req: Record request: clearance value, item CC[C@@H](C)Nc1nc(C)nc2c(-c3ccc(OC)nc3C)c(C)nn12
Resp: 11.6
